All values here come from the supplement of paper PMC10724198.

Listed here are sequences together with their documented protein stability index.
- System: Saccharomyces cerevisiae
- experimental protocol: protein stability index of tFT-peptide fusion (C-terminal peptide) (PSI (0-1 scale)); higher = more stable (slower turnover);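 also: PSI is a weighted mean of sequencing reads over stability bins, variants kept only with over 10 reads, mCherry proximal and sfGFP distal, peptide attached via GGGS linker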
- reported conditions: genetic background: cdc53-1; temperature: 37 C
measured metric: protein stability index

>>> df
   sequence_content          measured_metric  measurement
0      DGGHLVGHDLFY  protein stability index        0.747
1      VFSLAFYLVLFF  protein stability index        0.349
2      PPLPPPPPHPPP  protein stability index         0.52
3      VVGRWGFVVECW  protein stability index        0.301

* * *

Catalogue of protein stability index values
- Test system: Saccharomyces cerevisiae
- experimental protocol: protein stability index of tFT-peptide fusion (C-terminal peptide) (PSI (0-1 scale)); higher = more stable (slower turnover)
- reported conditions: genetic background: wild type; temperature: 30 C
measured metric: protein stability index

>>> print(df.to_string())
   sequence_content                       tgt          measured_metric  measurement
0      RLHCEGCDPGSL  Saccharomyces cerevisiae  protein stability index        0.719
1      GGGLSWARRSPS  Saccharomyces cerevisiae  protein stability index        0.683
2      IEIGTEEGKCTT  Saccharomyces cerevisiae  protein stability index        0.707
3      GGAYRCFSIQRS  Saccharomyces cerevisiae  protein stability index        0.687
4      IKKKKKKESRSS  Saccharomyces cerevisiae  protein stability index        0.693
5      LYTNLIGFNSWI  Saccharomyces cerevisiae  protein stability index        0.713
6      EHHLSRLKSLLR  Saccharomyces cerevisiae  protein stability index        0.709
7      PDHFPSPALPTH  Saccharomyces cerevisiae  protein stability index        0.702
8      GSRVGRATGRRR  Saccharomyces cerevisiae  protein stability index        0.709
9      VMVTYCSEVQDR  Saccharomyces cerevisiae  protein stability index        0.693

* * *

- Tested on: Saccharomyces cerevisiae
- experimental protocol: protein stability index of tFT-peptide fusion (C-terminal peptide) (PSI (0-1 scale)); higher = more stable (slower turnover)
- reported conditions: genetic background: wild type; temperature: 30 C
Items are presented alongside their recorded protein stability index.
measured metric: protein stability index

>>> print(df.to_string())
   sequence_content          measured_metric  measurement
0      PPLLDASPAPIL  protein stability index        0.689
1      LPPPRPASPGSP  protein stability index        0.642
2      RPCPGPLPPPPP  protein stability index        0.662
3      AWGARWVCVMGG  protein stability index        0.626

* * *

- Tested on: Saccharomyces cerevisiae
- experimental protocol: protein stability index of tFT-peptide fusion (C-terminal peptide) (PSI (0-1 scale)); higher = more stable (slower turnover)
- reported conditions: genetic background: wild type; temperature: 30 C
The threshold is inclusive: protein stability index of exactly 0.7 counts as satisfied; values below receive not satisfied.

>>> df
    sequence_content  classification
 0      GSFVEEVFRVKS   not satisfied
 1      FYLMSDTNLPAL   not satisfied
 2      PPLLQPPPPRLL       satisfied
 3      THSGRVRIVSFL   not satisfied
 4      LLPSPLSLTFPL   not satisfied
 5      LFLTFYSPLSFT   not satisfied
 6      WGKGGWHRRWGC   not satisfied
 7      GWVPDGCVGSIG   not satisfied
 8      VRWISVGNGGVR       satisfied
 9      PLPHSPPPPPPT       satisfied
10      GSRRYYFTWVYQ   not satisfied
11      HLIVPESVVHDL       satisfied
12      RVSVFILGWFRD   not satisfied
13      LCLCGLLGSGPT       satisfied
14      RSCFLSLFFFGF   not satisfied
15      GLEPSGLSGGSW   not satisfied
16      DLIHLVVIVPMV   not satisfied
17      LHRRIPFPTQAL   not satisfied
18      GGHGGRRRKGVG   not satisfied
19      LKCFLVLTFWFS   not satisfied
20      GGDIRGGVRHIG       satisfied
21      VFLVFSVWVVYR   not satisfied
22      LIPIRGESTFRF       satisfied
23      NIPESSVSKLSK   not satisfied
24      LCPDFSLQWSFD       satisfied
25      RKTHTRTQKRKL   not satisfied
26      FGKGRSLLLVFS   not satisfied
27      TFSIACIPSSHK   not satisfied
28      PSFSLLRSLTLI   not satisfied
29      KNKKFKKDEKTR       satisfied
